Tested Target: Amine oxidase [flavin-containing] B (Rattus norvegicus)
Sequence (P19643 whole entry): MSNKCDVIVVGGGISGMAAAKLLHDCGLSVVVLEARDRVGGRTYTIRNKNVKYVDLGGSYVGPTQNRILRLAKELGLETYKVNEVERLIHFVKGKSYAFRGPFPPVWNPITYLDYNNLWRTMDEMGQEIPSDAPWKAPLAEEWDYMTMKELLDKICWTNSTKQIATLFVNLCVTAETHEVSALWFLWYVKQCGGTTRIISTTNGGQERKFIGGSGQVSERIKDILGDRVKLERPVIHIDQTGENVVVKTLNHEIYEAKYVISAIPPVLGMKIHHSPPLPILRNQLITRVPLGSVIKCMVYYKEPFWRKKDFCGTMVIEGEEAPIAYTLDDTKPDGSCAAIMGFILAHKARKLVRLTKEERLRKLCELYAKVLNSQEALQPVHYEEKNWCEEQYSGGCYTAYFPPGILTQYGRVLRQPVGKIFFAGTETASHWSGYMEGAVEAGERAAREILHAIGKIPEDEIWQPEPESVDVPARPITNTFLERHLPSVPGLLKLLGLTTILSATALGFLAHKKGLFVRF
Test Details: Percentage inhibition of Monoamine oxidase B (MAO-B) at 1 uM concentration
Attribute: inhibition at 1 µM
Respond with the bare value in %.

Consider the reported inhibition at 1 µM for these molecules:
Molecule | Tested Target | Measurement Units | inhibition at 1 µM
Cc1ccc2c(c1)Oc1ccccc1[S+]2[O-] (stereo unspecified) | Amine oxidase [flavin-containing] B (Rattus norvegicus) | % | 7
Cc1cccc2c(=O)c3ccccc3sc12 | Amine oxidase [flavin-containing] B (Rattus norvegicus) | % | 0
Cc1ccc(Cl)c2sc3ccccc3c(=O)c12 | Amine oxidase [flavin-containing] B (Rattus norvegicus) | % | 0
CCc1cccc2c1S(=O)(=O)c1ccc(O)cc1O2 | Amine oxidase [flavin-containing] B (Rattus norvegicus) | % | 4
Cc1ccc(Cl)c2c1S(=O)(=O)c1ccccc1C2=O | Amine oxidase [flavin-containing] B (Rattus norvegicus) | % | 0

Would you kindly look at the next entry?
Form: molecule = COC(=O)C(=O)c1cccc2c1S(=O)(=O)c1ccccc1O2 ; inhibition at 1 µM = 0
